Measured IC50 by item
assay overview: Inhibition of Mycobacterium tuberculosis DNA gyrase
Give just the number in µg/mL; leave the unit off.

Examples from the recorded data:
{"compound": "COc1c(N2CCN(CN3C(=O)/C(=N\\c4ccc(S(=O)(=O)Nc5ncccn5)cc4)c4ccccc43)C(C)C2)c(F)cc2c(=O)c(C(=O)O)cn(C3CC3)c12 (stereo not drawn)", "IC50 [µg/mL]": 8}
{"compound": "COc1c(N2CCN(Cn3c(O)c(/N=N/C(=O)c4ccncc4)c4cc(C)ccc43)C(C)C2)c(F)cc2c(=O)c(C(=O)O)cn(C3CC3)c12 (stereo not drawn)", "IC50 [µg/mL]": 5.5}

Attention now shifts to the item below.
Ask | Requested field: IC50. Item: COc1c(N2CCN(Cn3c(O)c(/N=N/C(=O)c4ccncc4)c4ccccc43)C(C)C2)c(F)cc2c(=O)c(C(=O)O)cn(C3CC3)c12 (stereo not drawn)
Reply | 4

Sourced from ChEMBL document CHEMBL1147715
